Data origin: patent CN113461822A

As shown below, each of these binders has a reported 稀释100倍RLU value.
- Measurement Target: Scl-70抗原 (人DNA拓扑异构酶I的C末端片段的70kD分子量蛋白) (human) (UniProt P11387)
- Experiment Summary: chemiluminescence immunoassay on Scl-70-coated magnetic microspheres, ABEI-anti-human IgG; CHO supernatant diluted 100-fold
Readout Kind: 稀释100倍RLU

抗体5 (实施例15) (antibody, human IgG1, kappa, V domains shown) VH: EIQLVQSGSEVVRTGTSVKLSCKASGYRFTSYWMHWVKQRPGQGLEWIGNINPGDGRTNYDENFKNKATLTVDPSSNTAYMQLNSLTSEDSAVYYCTRDGNYGIFDYWGRGTSVTVSS VL: DIELTQSPSSLVVSAGEKVTLSCKSSQSLLYSSNQKNYLAWFQQKPGQSPKLLIYWASTRGSGVPDRFTGSGSRTDFTLTISSVQAEDMAVYYCHQYIYLWSFGGGTKLEIKR :: 129000 RLU
抗体4 (实施例14) (antibody, human IgG1, kappa, V domains shown) VH: EVKLVESGGGLVQPGGSRKLSCAASGFTFSSYWMHWVRQAPEKGLEWVAYISSGGITIYYADTVKGRFTISRDNPENTLFLQMTSLTSEDTAIYYCARRAAYGNYDWYFDVWGAGTTVTVSS VL: NIVMTQSPSSLVVSAGEKVTLSCKSSQSLLYSSNQKNYLAWFQQKPGQSPKLLIYWASTRESGVPDRFTGSGSRTDFTLTISSVQAEDMAVYYCHQYIYLWSFGGGSKLEIER :: 171000 RLU
抗体6 (实施例16) (antibody, human IgG1, kappa, V domains shown) VH: EVKLVESGGGLVQPGGSRKLSCAASGFTFSSYWMHWVRQAPEKGLEWVANINPGDGRTNYDENFKNRFTISRDNPENTLFLQMTSLTSEDTAIYYCARRAAYGNYDWYFDVWGAGTTVTVSS VL: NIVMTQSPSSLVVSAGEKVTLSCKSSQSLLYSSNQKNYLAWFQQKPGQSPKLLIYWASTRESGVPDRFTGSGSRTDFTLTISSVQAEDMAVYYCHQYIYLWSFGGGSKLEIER :: 86400 RLU
抗体1 (实施例11; 2D6抗体) (antibody, human IgG1, kappa, V domains shown) VH: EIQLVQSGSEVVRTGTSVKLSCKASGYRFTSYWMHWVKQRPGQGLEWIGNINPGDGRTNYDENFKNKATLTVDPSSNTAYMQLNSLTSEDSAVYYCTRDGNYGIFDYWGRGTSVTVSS VL: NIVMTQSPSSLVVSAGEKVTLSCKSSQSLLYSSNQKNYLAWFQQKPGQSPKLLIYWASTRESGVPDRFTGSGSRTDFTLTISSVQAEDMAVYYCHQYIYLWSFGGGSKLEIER :: 140000 RLU
